Molecular target: MOR-1 (Mus musculus, UniProt P42866)
Construct: expressed in transfected cells; host or cells: CHO
Sequence (P42866 whole entry): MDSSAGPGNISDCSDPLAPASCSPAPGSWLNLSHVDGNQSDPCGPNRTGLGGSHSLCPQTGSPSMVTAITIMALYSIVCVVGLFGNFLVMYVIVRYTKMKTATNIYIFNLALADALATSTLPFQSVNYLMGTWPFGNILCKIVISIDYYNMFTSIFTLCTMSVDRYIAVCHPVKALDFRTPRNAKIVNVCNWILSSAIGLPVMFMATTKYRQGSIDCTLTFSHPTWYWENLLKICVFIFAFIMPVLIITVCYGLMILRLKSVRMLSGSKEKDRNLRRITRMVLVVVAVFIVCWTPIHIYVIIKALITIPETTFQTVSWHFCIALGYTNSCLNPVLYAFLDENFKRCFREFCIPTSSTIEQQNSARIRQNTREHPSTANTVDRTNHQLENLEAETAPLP
Assay: Competition binding against 125I-IBNtxA in MOR-1/CHO membranes
pKi: −log10 of the molar value.

COMPOUND: CC[C@@H]1CN2CC[C@@]3(C(=O)c4c(OC)cccc4N3Cc3ccccc3)C2C[C@@H]1/C(=C\OC)C(=O)OC (stereo partly drawn)
STUDY SYSTEM: MOR-1 (Mus musculus, UniProt P42866)
RELATION SIGN: =
pKi: 6.60
--
COMPOUND: CC[C@@H]1CN2CC[C@]3(Nc4ccccc4C3=O)C2C[C@@H]1/C(=C\OC)C(=O)OC (stereo partly drawn)
STUDY SYSTEM: MOR-1 (Mus musculus, UniProt P42866)
RELATION SIGN: =
pKi: 9.34
--
COMPOUND: CC[C@@H]1CN2CC[C@@]3(N4CCCCC4)C(=Nc4cccc(OC)c43)[C@@H]2C[C@@H]1/C(=C\OC)C(=O)OC
STUDY SYSTEM: MOR-1 (Mus musculus, UniProt P42866)
RELATION SIGN: =
pKi: 6.61
--
COMPOUND: C=C(COC)[C@H]1C[C@H]2c3[nH]c4cccc(OC)c4c3CCN2C[C@H]1CC
STUDY SYSTEM: MOR-1 (Mus musculus, UniProt P42866)
RELATION SIGN: <
pKi: 6.00
--
COMPOUND: CC[C@@H]1CN2CCC3c4c(cccc4OC)NC3[C@@H]2C[C@@H]1/C(=C\OC)C(=O)OC (stereo partly drawn)
STUDY SYSTEM: MOR-1 (Mus musculus, UniProt P42866)
RELATION SIGN: =
pKi: 6.94
--
COMPOUND: CC[C@@H]1CN2CC[C@]3(Nc4cccc(-c5ccccc5)c4C3=O)C2C[C@@H]1/C(=C\OC)C(=O)OC (stereo partly drawn)
STUDY SYSTEM: MOR-1 (Mus musculus, UniProt P42866)
RELATION SIGN: =
pKi: 9.04
--
COMPOUND: CC[C@@H]1CN2CC[C@@]3(O)C(=Nc4ccccc43)[C@@H]2C[C@@H]1/C(=C\OC)C(=O)OC
STUDY SYSTEM: MOR-1 (Mus musculus, UniProt P42866)
RELATION SIGN: =
pKi: 7.64
--
COMPOUND: CC[C@@H]1CN2CC[C@@]3(O)C(=Nc4ccc(-c5ccoc5)c(OC)c43)C2C[C@@H]1/C(=C\OC)C(=O)OC (stereo partly drawn)
STUDY SYSTEM: MOR-1 (Mus musculus, UniProt P42866)
RELATION SIGN: =
pKi: 7.44
--
COMPOUND: CC[C@@H]1CN2CC[C@]3(Nc4cccc(OC)c4C3=O)C2C[C@@H]1/C(=C\OC)C(=O)OC (stereo partly drawn)
STUDY SYSTEM: MOR-1 (Mus musculus, UniProt P42866)
RELATION SIGN: =
pKi: 9.10
--
COMPOUND: CC[C@@H]1CN2CCc3c([nH]c4cccc(OC)c34)[C@@H]2C[C@@H]1/C(=C\OC)CO
STUDY SYSTEM: MOR-1 (Mus musculus, UniProt P42866)
RELATION SIGN: <
pKi: 6.00
--
COMPOUND: CC[C@@H]1CN2CC[C@]3(Nc4cccc(O)c4C3=O)C2C[C@@H]1/C(=C\OC)C(=O)OC (stereo partly drawn)
STUDY SYSTEM: MOR-1 (Mus musculus, UniProt P42866)
RELATION SIGN: =
pKi: 8.85
--
COMPOUND: COC(=O)CC1CCN2CC[C@@]3(O)C(=Nc4cccc(OC)c43)C2C1 (stereo partly drawn)
STUDY SYSTEM: MOR-1 (Mus musculus, UniProt P42866)
RELATION SIGN: <
pKi: 6.00
--
COMPOUND: CC[C@@H]1CN2CC[C@]3(Nc4cccc(C#N)c4C3=O)C2C[C@@H]1/C(=C\OC)C(=O)OC (stereo partly drawn)
STUDY SYSTEM: MOR-1 (Mus musculus, UniProt P42866)
RELATION SIGN: =
pKi: 9.30
--
COMPOUND: CC[C@@H]1CN2CCc3c(n(Cc4ccccc4)c4cccc(OC)c34)[C@@H]2C[C@@H]1/C(=C\OC)C(=O)OC
STUDY SYSTEM: MOR-1 (Mus musculus, UniProt P42866)
RELATION SIGN: =
pKi: 7.03
--
COMPOUND: CC[C@@H]1CN2CC[C@@]3(OC)C(=Nc4cccc(OC)c43)[C@@H]2C[C@@H]1/C(=C\OC)C(=O)OC
STUDY SYSTEM: MOR-1 (Mus musculus, UniProt P42866)
RELATION SIGN: =
pKi: 6.72

---

Biological target: KOR-1 (Mus musculus)
Construct: expressed in transfected cells; host or cells: CHO
Sequence (P33534 whole entry): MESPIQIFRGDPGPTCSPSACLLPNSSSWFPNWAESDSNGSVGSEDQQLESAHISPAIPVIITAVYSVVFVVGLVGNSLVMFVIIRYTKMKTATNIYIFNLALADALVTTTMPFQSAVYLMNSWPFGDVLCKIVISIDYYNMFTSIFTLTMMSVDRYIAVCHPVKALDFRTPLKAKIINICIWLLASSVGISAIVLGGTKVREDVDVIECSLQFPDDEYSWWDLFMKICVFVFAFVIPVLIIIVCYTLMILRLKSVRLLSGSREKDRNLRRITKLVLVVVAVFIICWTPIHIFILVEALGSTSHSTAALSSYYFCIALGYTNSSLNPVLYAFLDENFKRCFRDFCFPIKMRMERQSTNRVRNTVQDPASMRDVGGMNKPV
Assay: [35S]GTPγS functional assay, KOR-1 transfected cell membranes
Type: biochemical

COMPOUND: CC[C@@H]1CN2CC[C@]3(Nc4cccc(OC)c4C3=O)C2C[C@@H]1/C(=C\OC)C(=O)OC (some centres unmarked)
STUDY SYSTEM: KOR-1 (Mus musculus)
IC50: 31 nM
--
COMPOUND: CC[C@@H]1CN2CC[C@@]3(O)C(=Nc4cccc(OC)c43)C2C[C@@H]1/C(=C\OC)C(=O)OC (some centres unmarked)
STUDY SYSTEM: KOR-1 (Mus musculus)
IC50: 2520 nM

---

Molecular target: MOR-1 (Mus musculus, UniProt P42866)
Construct: expressed in transfected cells; host or cells: CHO
Assay: [35S]GTPγS functional assay, MOR-1 transfected cell membranes
Assay type: biochemical
Design: dose or concentration left out as unconfirmed
Settings: read-out: MOR-1 Emax (%)

COMPOUND: CC[C@@H]1CN2CC[C@]3(Nc4cccc(C#N)c4C3=O)C2C[C@@H]1/C(=C\OC)C(=O)OC (stereo partly drawn)
Emax: 122%

COMPOUND: CC[C@@H]1CN2CC[C@]3(Nc4ccccc4C3=O)C2C[C@@H]1/C(=C\OC)C(=O)OC (stereo partly drawn)
Emax: 116%

COMPOUND: CC[C@@H]1CN2CC[C@@]3(O)C(=Nc4ccccc43)[C@@H]2C[C@@H]1/C(=C\OC)C(=O)OC
Emax: 116%

COMPOUND: CC[C@@H]1CN2CCc3c([nH]c4ccccc34)[C@@H]2C[C@@H]1/C(=C\OC)C(=O)OC
Emax: 74%

COMPOUND: CC[C@@H]1CN2CC[C@]3(Nc4cccc(OC(C)=O)c4C3=O)C2C[C@@H]1/C(=C\OC)C(=O)OC (stereo partly drawn)
Emax: 120%

COMPOUND: CC[C@@H]1CN2CCc3c([nH]c4cccc(OC)c34)[C@@H]2C[C@@H]1/C(=C\OC)C(=O)OC
Emax: 65%

COMPOUND: CC[C@@H]1CN2CCc3c([nH]c4cccc(O)c34)[C@@H]2C[C@@H]1/C(=C\OC)C(=O)OC
Emax: 62%

COMPOUND: CC[C@@H]1CN2CC[C@]3(Nc4cccc(O)c4C3=O)C2C[C@@H]1/C(=C\OC)C(=O)OC (stereo partly drawn)
Emax: 124%

COMPOUND: CC[C@@H]1CN2CC[C@]3(Nc4cccc(-c5ccccc5)c4C3=O)C2C[C@@H]1/C(=C\OC)C(=O)OC (stereo partly drawn)
Emax: 123%

---

Test system: CD1 mice
Assay: Radiant heat tail flick analgesia, sc, CD1 mice
Type: in vivo
Settings: Mus musculus, 0.25 h, ED50, cumulative dose-response, tail flick 15 min after sc dose
# ED50 annotations

COMPOUND: CC[C@@H]1CN2CC[C@]3(Nc4cccc(C#N)c4C3=O)C2C[C@@H]1/C(=C\OC)C(=O)OC (stereo partly shown) [VM1509]
UNIT TEXT: mg/kg
ED50: 0.32
//
COMPOUND: CC[C@@H]1CN2CC[C@]3(Nc4cccc(-c5ccccc5)c4C3=O)C2C[C@@H]1/C(=C\OC)C(=O)OC (stereo partly shown) [VM1511]
UNIT TEXT: mg/kg
ED50: 1
//
COMPOUND: CC[C@@H]1CN2CC[C@]3(Nc4cccc(OC)c4C3=O)C2C[C@@H]1/C(=C\OC)C(=O)OC (stereo partly shown) [VM1502]
UNIT TEXT: mg/kg
ED50: 0.76
//
COMPOUND: CN1CC[C@]23c4c5ccc(O)c4O[C@H]2[C@@H](O)C=C[C@H]3[C@H]1C5 [morphine, reference compound]
UNIT TEXT: mg/kg
ED50: 4.6
//
COMPOUND: CC[C@@H]1CN2CC[C@]3(Nc4cccc(OC(C)=O)c4C3=O)C2C[C@@H]1/C(=C\OC)C(=O)OC (stereo partly shown) [VM1510]
UNIT TEXT: mg/kg
ED50: 0.38
//
COMPOUND: CC[C@@H]1CN2CC[C@]3(Nc4cccc(-c5ccoc5)c4C3=O)C2C[C@@H]1/C(=C\OC)C(=O)OC (stereo partly shown) [VM1512]
UNIT TEXT: mg/kg
ED50: 1.1
//
COMPOUND: CC[C@@H]1CN2CCc3c([nH]c4cccc(OC)c34)[C@@H]2C[C@@H]1/C(=C\OC)C(=O)OC [VM1500]
UNIT TEXT: mg/kg
ED50: 166
